assay: Apparent oral clearance in healthy human at 100 mg, po administered as single dose; format: ADME, organism-based; conditions: in vivo
experimental-endpoint: CL/F
Kindly write the number and append the unit.

Quick one: CL/F for CCN1c2ncc(CCOc3cc[n+]([O-])c4ccccc34)cc2C(=O)N(C)c2cccnc21 [BILR 355] ?
1320 mL/min

----------
assay: AUC (0 to infinity) in healthy human at 5 mg, po administered as single dose; type: ADME, organism-based; design: dose 5 mg, route oral, time infinity; details: plasma
experimental-endpoint: AUC(0-inf) (ng·h/mL)
Form entry: value (ng·h/mL) — number only.

# lookup: AUC(0-inf) of CCN1c2ncc(CCOc3cc[n+]([O-])c4ccccc34)cc2C(=O)N(C)c2cccnc21 [BILR 355]
36.3
